tested on: Wild type; experiment: S. aureus survival, RN4220 and DeltatarO strains – OD600, teichoic acid synthesis inhibitors, primary screen (AID 463173); settings: S. aureus RN4220 wild type/DeltatarO growth, OD600, 18 h, hits give low values, screened at 18.75 µg/mL (by protocol)
In all, about 52,000 compounds went through this assay and about 1,700 (3.3%) were called active. Many of the other results were omitted from the sample, so actives are more common in it than they were.
I'd be grateful if you could share measured survival for these entries.
Numbers only, in %.

Batch lookup, survival per entry.
1. Cc1cc(=O)[nH]c(SCC(=O)N(c2ccccc2)c2ccccc2)n1
2. COc1ccc(NC(=O)N2CCc3c([nH]c4ccc(OC)cc34)C2c2ccc(OC)cc2)cc1 (stereo not given)

Result:
1: 103; 2: 93

Please look at the items below and tell me survival for each one, in order.
1. CCc1ccc(-n2nnc(-c3nsc(NC(=O)c4ccccc4Cl)n3)c2C)cc1
2. Cc1cccc(N2CCN(C(=O)c3cccn4c(=O)c5cc(Cl)ccc5nc34)CC2C)c1 (stereo not given)
3. CC(C)OCCCNC(=O)CN1C(=O)COc2ccc(S(=O)(=O)N3CCCCCC3)cc21
4. CCN(CC)CCN(C(=O)c1ccco1)c1nc2c(C)cccc2s1
5. CC1CCN(C(=O)CN(C)S(=O)(=O)c2ccc3ccccc3c2)CC1
6. Cc1cc(C)c(NC(=O)Cn2c(=O)n(CCCCC(=O)NCc3ccccc3Cl)c(=O)c3ccccc32)c(C)c1

Result:
[12, 65, 98, 98, 115, 106]

Would you mind giving survival for every molecule in the list below?
1. Cc1cccn2c(=O)c(C(=O)N3CCN(c4ccccc4)CC3)cnc12
2. COc1ccc(-n2c(-c3ccco3)nc3c(cnn3-c3ccc(Cl)cc3)c2=O)cc1

Result:
1. 22
2. 90

----------
For each record, write down the corresponding survival.
tested on: Wild type; assay: S. aureus survival, RN4220 and DeltatarO strains – OD600, teichoic acid synthesis inhibitors, primary screen (AID 463173); settings: S. aureus RN4220 wild type/DeltatarO growth, OD600, 18 h, hits give low values, screened at 18.75 µg/mL (by protocol)
Out of some 52,000 compounds screened, about 1,700 (3.3%) were called active. The sample holds actives, similar compounds and a random draw of the others, so the mix is not that of the screen.
Answers are plain numbers, in %.

Study these solved cases before continuing.
CCc1nc2c(cnn2-c2ccc(Cl)cc2)c(=O)n1-c1ccc(OC)c(Cl)c1 : 78
CCN(CC)c1ccc(NC(=O)CCc2nc3cccnc3n2Cc2cccs2)c(C)c1 : 73
Cc1cc(C)cc(NC(=O)CN2C(=O)CSc3ccc(S(=O)(=O)N4CCCC4)cc32)c1 : 88
CC(C(=O)N1CCCCC1)N1CCC(N2CCCCC2)CC1 (stereo not given) : 93

Now consider the entry below.
Ask: Form field: reported survival of `CCc1nnc2c3ccccc3nc(Nc3cc(C)cc(C)c3)n12`
Result: 37

----------
system: Wild type; assay: S. aureus survival, RN4220 and DeltatarO strains – OD600, teichoic acid synthesis inhibitors, primary screen (AID 463173); conditions: S. aureus RN4220 wild type/DeltatarO growth, OD600, 18 h, hits give low values, screened at 18.75 µg/mL (by protocol)
The whole screen tested about 52,000 compounds, of which about 1,700 (3.3%) were called active. Shown is part of a subset that was picked to be rich in actives.
Each record is given criterion met if its reported survival is strictly below 80%. Records at or above 80% are given criterion not met.

See these solved cases before continuing.
O=C1CC(c2ccccc2)Cc2[nH]c(=O)c(C(=O)Nc3cccc(Cl)c3)cc21 (stereo not given) : criterion met
CCOc1ccccc1NC(=O)CN(c1cc(C)cc(C)c1)S(=O)(=O)c1c(C)nn(C)c1C : criterion met
COc1cc(Nc2nc(SCc3ccccc3Cl)nc3ccccc23)cc(OC)c1 : criterion not met

Ask: survival under 80%? Item: `Cc1ccc(C)c(Oc2nc3c(c(=O)n(C)c(=O)n3C)n2Cc2ccccc2)c1`
Result: criterion met
